- System: ρ^o cells (cell line 206)
- test-details: Growth inhibition studies in ρ° cells devoid of mitochondrial DNA
- Format: cell-based
- details: ρ° cells; read-out: 50% Growth Inhibition Dose
In this section we review reported IC50 values for a set of molecules.

- molecule: "CC(=O)O[C@H]1C(=O)[C@@]2(C)[C@H]([C@H](OC(=O)c3ccccc3)[C@]3(O)C[C@H](OC(=O)[C@H](O)[C@@H](NC(=O)c4ccccc4)c4ccccc4)C(C)=C1C3(C)C)[C@]1(OC(C)=O)CO[C@@H]1C[C@@H]2O [Paclitaxel]"
  IC50 (µg/mL): 0.05
- molecule: "O=CC[C@@H](O)[C@H](O)[C@H](O)CO [2-deoxy-glucose, 2-deoxy-D-glucose]"
  IC50 (µg/mL): 50
- molecule: "CC[C@]1(O)C[C@@H]2CN(CCc3c([nH]c4ccccc34)[C@@](C(=O)OC)(c3cc4c(cc3OC)N(C)[C@H]3[C@@](O)(C(=O)OC)[C@H](OC(C)=O)[C@]5(CC)C=CCN6CC[C@]43[C@@H]65)C2)C1 [Vinblastine]"
  IC50 (µg/mL): 0.00075
- molecule: "COc1cccc2c1C(=O)c1c(O)c3c(c(O)c1C2=O)C[C@@](O)(C(=O)CO)C[C@@H]3O[C@H]1C[C@H](N)[C@H](O)[C@H](C)O1 [Doxorubicin]"
  IC50 (µg/mL): 0.01
